- MEASURED_TARGET: T1, MBP-Th-LGR4 LRR1-14 (MBP-Th-hLGR4.23-383-H6) (human, UniProt Q9BXB1 23-383)
- T1 construct: range 23-383; Produced in E. coli; Labeled with amine-reactive terbium chelate in the TR-FRET assay; unlabeled in the AlphaLISA ternary complex assay; also called MBP-Th-LGR4 ECD; LGR4 ECD; not shown: thrombin cut site (Th) linker
- EXPERIMENT: TR-FRET competition binding; Tb-labeled MBP-Th-LGR4 LRR1-14 (20 nM), AF488-labeled MBP-Th-RSPO2 Fu1-Fu2 (125 nM) as tracer
Measured pKI, listed per entry.
Respond numerically, and do not add a unit to the figure.

[
  {
    "BINDER": "MBP-Th-RSPO4 Fu1-Fu2-H6 (MBP-Th-RSPO4.21-138-H6), produced in E. coli (ligand, Bacterially produced; also called MBP-Th-RSPO4 (E. coli); pAP356; not shown: thrombin cut site (Th) linker) NRRKKQVGTGLGGNCTGCIICSEENGCSTCQQRLFLFIRREGIRQYGKCLHDCPPGYFGIRGQEVNRCKKCGATCESCFSQDFCIRCKRQFYLYKGKCLPTCPPGTLAHQNTRECQGEHHHHHH",
    "pKI": 8.12
  },
  {
    "BINDER": "MBP-Th-RSPO2 Fu1-Fu2-H6 (MBP-Th-RSPO2.22-144-H6) (ligand, Produced in E. coli; also called pAC018; not shown: thrombin cut site (Th) linker) QGNRWRRSKRASYVSNPICKGCLSCSKDNGCSRCQQKLFFFLRREGMRQYGECLHSCPSGYYGHRAPDMNRCARCRIENCDSCFSKDFCTKCKVGFYLHRGRCFDECPDGFAPLEETMECVEGHHHHHH",
    "pKI": 7.26
  },
  {
    "BINDER": "MBP-Th-RSPO1 Fu1-Fu2-H6 (ligand, Produced in E. coli; also called MBP-Th-hRSPO1 Fu1-Fu2-H6; not shown: thrombin cut site (Th) linker) SRGIKGKRQRRISAEGSQACAKGCELCSEVNGCLKCSPKLFILLERNDIRQVGVCLPSCPPGYFDARNPDMNKCIKCKIEHCEACFSHNFCTKCKEGLYLHKGRCYPACPEGSSAANGTMECSSPHHHHHH",
    "pKI": 6.9
  }
]

May I ask what pKI has been recorded for MBP-Th-RSPO3 Fu1-Fu2-H6 (MBP-Th-RSPO3.22-146-H6) (ligand, Produced in E. coli; also called pAP355; not shown: thrombin cut site (Th) linker) QNASRGRRQRRMHPNVSQGCQGGCATCSDYNGCLSCKPRLFFALERIGMKQIGVCLSSCPSGYYGTRYPDINKCTKCKADCDTCFNKNFCTKCKSGFYLHLGKCLDNCPEGLEANNHTMECVSIVHHHHHH ?
7.31
